format: physicochemical; settings: IAM PC.DD2 column, pH 7.4, acetonitrile gradient; UV filters
Readout label: CHIIAM (chromatographic phospholipid binding)
A bare number is all that is needed in reply.

Please review the following examples before continuing.
# Molecule, Meas value
rows = [
    ("CCCCC(CC)COC(=O)C(C#N)=C(c1ccccc1)c1ccccc1 (stereo not shown)", 60.0),
    ("COc1ccc(C(=O)c2ccccc2)c(O)c1", 40.8),
    ("CCCCC(CC)COC(=O)c1ccc(N(C)C)cc1 (stereo not shown) [Padimate O, padimate O]", 53.6),
    ("COc1ccc(C(=O)c2ccccc2O)c(O)c1", 39.9),
    ("CC1CCC(C(C)C)C(OC(=O)c2ccccc2N)C1 (stereo not shown) [Meradimate, meradimate]", 56.9),
]

Which CHIIAM (chromatographic phospholipid binding) is reported for this molecule? O=S(=O)(O)c1ccc2[nH]c(-c3ccccc3)nc2c1
13.2

Which CHIIAM (chromatographic phospholipid binding) is reported for this molecule? CC1CC(OC(=O)c2ccccc2O)CC(C)(C)C1 (stereo not shown) [Homosalate, homosalate]
56.8
